For each entry below, report its CC50 value.
Test system: NCI-H322M
Assay: cells
Conditions: Homo sapiens, 48 h, read-out: LC50
Answer with a number only, understood to be in µM.

Inquiry: Find the measured CC50: item COc1cc(/C=C/C(=O)c2cc(OC)c(OC)c(OC)c2)ccc1Oc1nc(NCCO)nc(N2CCOCC2)n1 [20d] , target or system NCI-H322M.
Reply text: 29.3

Inquiry: Can you handle Nc1nc(N)c2c(n1)NC(c1ccc(F)cc1)CC(c1ccc(Nc3nc(NCCO)nc(Nc4ccc(Cl)cc4)n3)cc1)=N2 (stereo not shown) [33f] next?
Reply text: 33.5

Inquiry: Can you handle CN(C)c1nc(NCCNS(=O)(=O)c2ccc(C(=O)/C=C/c3ccc(Cl)cc3)cc2)nc(N2CCOCC2)n1 [23e] next?
Reply text: 52.4

Inquiry: Can you handle CN(C)c1nc(NCCNS(=O)(=O)c2ccc(C(=O)/C=C/c3ccc(C(F)(F)F)cc3)cc2)nc(N2CCOCC2)n1 [23g] next?
Reply text: 52.1

Inquiry: Can you handle Nc1nc(N)c2c(n1)NC(c1ccc(Cl)cc1)CC(c1ccc(Nc3nc(NCCO)nc(Nc4ccc(Cl)cc4)n3)cc1)=N2 (stereo not shown) [33e] next?
Reply text: 16.9

Inquiry: Can you handle CN(C)c1nc(NCCNS(=O)(=O)c2ccc(C(=O)/C=C/c3ccccc3)cc2)nc(Nc2ccc(F)cc2)n1 [24a] next?
Reply text: 76.9

* * *

MIC, A. fumigatus (ATCC 26934): measured values

Inquiry: Recorded MIC of CN(C)c1nc(NCCNS(=O)(=O)c2ccc(C(=O)/C=C/c3ccc(Cl)cc3)cc2)nc(N2CCOCC2)n1 [23e] , please.
Reply text: > 250 µg/mL

Inquiry: Can you handle CN(C)c1nc(NCCNS(=O)(=O)c2ccc(C3=Nc4c(N)nc(N)nc4NC(c4ccc(C(F)(F)F)cc4)C3)cc2)nc(Nc2ccc(F)cc2)n1 (stereo not drawn) [31g] next?
Reply text: 62.5 µg/mL

Inquiry: Can you handle COc1ccc(/C=C/C(=O)c2ccc(S(=O)(=O)NCCNc3nc(Nc4ccc(F)cc4)nc(N(C)C)n3)cc2)cc1 [24c] next?
Reply text: > 250 µg/mL

Inquiry: Can you handle COc1cc(/C=C/C(=O)c2cc(OC)c(OC)c(OC)c2)ccc1Oc1nc(Nc2ccc(F)cc2)nc(N(C)C)n1 [21d] next?
Reply text: > 250 µg/mL

Inquiry: Can you handle COc1cc(C2CC(c3ccc(F)cc3)=Nc3c(N)nc(N)nc3N2)ccc1Oc1nc(Nc2ccc(F)cc2)nc(N(C)C)n1 (stereo not drawn) [29f] next?
Reply text: > 250 µg/mL

Inquiry: Can you handle COc1cc(C2CC(c3ccc(S(=O)(=O)NCCNc4nc(N(C)C)nc(N5CCOCC5)n4)cc3)=Nc3c(N)nc(N)nc3N2)cc(OC)c1OC (stereo not drawn) [30d] next?
Reply text: > 250 µg/mL

* * *

Test system: HOP-62
# note: boundary value 3000 nM maps to False; GI50 below it maps to True

Inquiry: For this compound, is GI50 lower than 3000 nM? Nc1nc(N)c2c(n1)NC(c1ccc(Cl)cc1)CC(c1ccc(Nc3nc(NCCO)nc(Nc4ccc(Cl)cc4)n3)cc1)=N2 (centres unmarked) [33e]
Reply text: True

Inquiry: Can you handle COc1cc(/C=C/C(=O)c2ccc(C)cc2)ccc1Oc1nc(Nc2ccc(F)cc2)nc(N(C)C)n1 [21b] next?
Reply text: False

Inquiry: Can you handle COc1cc(/C=C/C(=O)c2cc(OC)c(OC)c(OC)c2)ccc1Oc1nc(Nc2ccc(F)cc2)nc(N(C)C)n1 [21d] next?
Reply text: True

Inquiry: Can you handle CN(C)c1nc(NCCNS(=O)(=O)c2ccc(C(=O)/C=C/c3ccc(Cl)cc3)cc2)nc(Nc2ccc(F)cc2)n1 [24e] next?
Reply text: False

Inquiry: Can you handle Nc1nc(N)c2c(n1)NC(c1ccc(C(F)(F)F)cc1)CC(c1ccc(Nc3nc(NCCO)nc(Nc4ccc(Cl)cc4)n3)cc1)=N2 (centres unmarked) [33g] next?
Reply text: True

Inquiry: Can you handle COc1cc(/C=C/C(=O)c2cc(OC)c(OC)c(OC)c2)ccc1Oc1nc(NCCO)nc(N2CCOCC2)n1 [20d] next?
Reply text: True

Inquiry: Can you handle Cc1ccc(C2CC(c3ccc(Nc4nc(NCCO)nc(Nc5ccc(Cl)cc5)n4)cc3)=Nc3c(N)nc(N)nc3N2)cc1 (centres unmarked) [33b] next?
Reply text: True

Inquiry: Can you handle CN(C)c1nc(NCCNS(=O)(=O)c2ccc(C(=O)/C=C/c3ccc(F)cc3)cc2)nc(N2CCOCC2)n1 [23f] next?
Reply text: False
